B1: Far upstream element-binding protein 1, residues 98 to 169; numbered along this chain, Q96AE4 (parent)
chain: RSVMTEEYKVPDGMVGFIIGRGGEQISRIQQESGCKIQIAPDSGGLPERSCMLTGTPESVQSAKRLLDQIVE

Variants of: B1
Assay: abundance fitness (aPCA) (normalised: wild type 0, dead -1); higher = more abundant; growth selection in yeast, the domain comes from the species named
Details: Homo sapiens
endpoint_name: abundance fitness
Answer with the value's number alone.

These recorded examples may help you get a feel for the data.
item_sequence: RSVMTEEYKVPDGMVGFIIGRGGEQISRIQQESGCKIQIAPDSGGLPERSCHLTGTPESVQSAKRLLDQIVE [M52H]
abundance fitness: -0.025

item_sequence: RSVMTEEYKVPDGMVGFIIGRGGEQISRIQQESGCKIQIAPDSGGLPERSCMLTGTPESVQSAKRLLDAIVE [Q69A]
abundance fitness: -0.006

item_sequence: RYVMTEEYKVPDGMVGFIIGRGGEQISRIQQESGCKIQIAPDSGGLPERSCMLTGTPESVQSAKRLLDQIVE [S2Y]
abundance fitness: -0.087

I would be grateful if you could share the reported abundance fitness for RSVMTEEYKVPDGMVGFIIGRNGEQISRIQQESGCKIQIAPDSGGLPERSCMLTGTPESVQSAKRLLDQIVE [G22N] .
0.048

I would be grateful if you could share the reported abundance fitness for RSVMTEEYKVPDGMVGFIIGRGGEQISRIQQESGCKIQIAPDSGGLPERSCMLTGTPESVQSAKRLLNQIVE [D68N] .
-0.025

I would be grateful if you could share the reported abundance fitness for RSVMTEEYKVPDGMVGFIIGRGGGQISRIQQESGCKIQIAPDSGGLPERSCMLTGTPESVQSAKRLLDQIVE [E24G] .
-0.057

I would be grateful if you could share the reported abundance fitness for RSVMTEEYKVPIGMVGFIIGRGGEQISRIQQESGCKIQIAPDSGGLPERSCMLTGTPESVQSAKRLLDQIVE [D12I] .
-0.038

I would be grateful if you could share the reported abundance fitness for RSVMTEEYKVPDGMVGFIIGRGGEQISRIQQESGCKIQIAPDSWGLPERSCMLTGTPESVQSAKRLLDQIVE [G44W] .
-0.125

I would be grateful if you could share the reported abundance fitness for RSVMTEEYKVPDGMVGFIIGRGGEQISRIQQESGCKIQIAPDSGGLPERSCMLTGTPEPVQSAKRLLDQIVE [S59P] .
-0.555
